- test protocol: MTT dye reduction viability test, HaCaT
- Format: cell-based, human
- condition notes: human; HaCaT, 20 µM, 72 h, representative MTT result (Table S1 B); read-out: Cells viability

{"compound": "O=c1cc(-c2ccccc2)oc2cc(O)ccc12 [7-Hydroxy-Flavone, 7-hydroxy-flavone, reference compound]", "viability at 20 µM (%)": 65.8}

====

- test protocol: MTT dye reduction viability test, HaCaT
- Format: cell-based, human
- condition notes: human, HaCaT cells (immortal keratinocytes), 72 h exposure, MTT, mean ± SD; read-out: Cytotoxic activity IC50, HaCaT

{"compound": "CCC=CCC=CCC=CCCCCCCCC(=O)Oc1ccc2c(=O)cc(-c3ccccc3)oc2c1 [7-Linolenic-Flavone, 7-hydroxy-flavone linolenic ester]", "unit abbrev": "µM", "IC50 at 72 h": 45.4}
{"compound": "CCCCCC=CCC=CCCCCCCCC(=O)Oc1ccc2c(c1)C(=O)CC(c1ccccc1)O2 (stereo not drawn) [6-Linoleic-Flavanone, 6-hydroxy-flavanone linoleic ester]", "unit abbrev": "µM", "IC50 at 72 h": 80}
{"compound": "CCCCCCCCC=CCCCCCCCC(=O)Oc1ccc2c(c1)C(=O)CC(c1ccccc1)O2 (stereo not drawn) [6-Oleic-Flavanone, 6-hydroxy-flavanone oleic ester]", "unit abbrev": "µM", "IC50 at 72 h": 53.3}
{"compound": "CC=CC=CC(=O)Oc1ccc2c(c1)C(=O)CC(c1ccccc1)O2 (stereo not drawn) [6-Sorbic-Flavanone, 6-hydroxy-flavanone sorbic ester]", "unit abbrev": "µM", "IC50 at 72 h": 79.8}
{"compound": "CCCCCCCCCCCCCCCCCC(=O)Oc1ccc2c(c1)C(=O)CC(c1ccccc1)O2 (stereo not drawn) [6-Stearic-Flavanone, 6-hydroxy-flavanone stearic ester]", "unit abbrev": "µM", "IC50 at 72 h": 40.6}
{"compound": "CCC=CCC=CCC=CCCCCCCCC(=O)Oc1ccc2c(c1)C(=O)CC(c1ccccc1)O2 (stereo not drawn) [6-Linolenic-Flavanone, 6-hydroxy-flavanone linolenic ester]", "unit abbrev": "µM", "IC50 at 72 h": 80}

====

- test protocol: MTT dye reduction viability test, HaCaT
- Assay type: cell-based, human
- condition notes: human, Cytotoxic activity IC50, HaCaT

{"molecule": "COc1cccc2c1C(=O)c1c(O)c3c(c(O)c1C2=O)C[C@@](O)(C(=O)CO)C[C@@H]3O[C@H]1C[C@H](N)[C@H](O)[C@H](C)O1 [doxorubicin, reference compound]", "IC50 at 72 h [nM]": 310}

====

Quick reference: IC50 of the listed items.
- System: human immortal keratinocyte cells (HaCaT)
- test protocol: MTT dye reduction viability test, HaCaT
- Format: cell-based
- condition notes: 72 h exposure, MTT, mean ± SD; read-out: Cytotoxic activity IC50, HaCaT
- Procedure: We have chosen two types of cell culture lines: human prostate cancer cells (PC3) and normal human immortal keratinocyte cells (HaCaT) (Table 1). […] To assess the cells growth inhibition, the MTT dye reduction test was preformed based on the method described by Präbst et al.. […] The optical density was measured with an UVM 340 (ASYS Hitech GmbH, Austria) microplate reader at 570 nm. Replicates of three wells for each dosage, including vehicle control, were analyzed for each experiment. […]

{"molecule": "CCCCCCCCC=CCCCCCCCC(=O)Oc1ccc2c(c1)C(=O)CC(c1ccccc1)O2 (stereo not drawn) [6-Oleic-Flavanone, 6-hydroxy-flavanone oleic ester]", "measured target": "human immortal keratinocyte cells (HaCaT)", "unit abbrev": "µM", "IC50": 53.3}
{"molecule": "CCCCCCCCCCCCCCCCCC(=O)Oc1ccc2c(c1)C(=O)CC(c1ccccc1)O2 (stereo not drawn) [6-Stearic-Flavanone, 6-hydroxy-flavanone stearic ester]", "measured target": "human immortal keratinocyte cells (HaCaT)", "unit abbrev": "µM", "IC50": 40.6}
{"molecule": "CCC=CCC=CCC=CCCCCCCCC(=O)Oc1ccc2c(c1)C(=O)CC(c1ccccc1)O2 (stereo not drawn) [6-Linolenic-Flavanone, 6-hydroxy-flavanone linolenic ester]", "measured target": "human immortal keratinocyte cells (HaCaT)", "unit abbrev": "µM", "IC50": 44.6}
